The values you see were collected from paper PMC5540273.

Below, each entry is listed with its recorded %Inh.
System: PDPK1
CONDITION DETAILS: concentration: 1 μM, replicates: in singlicate; n = 1
Write down the numeric answer in % and omit the unit.

Here is how some compounds turned out for %Inh.
COMPOUND	VALUE
Fc1cccc(COc2nnc(-c3ccc4c(c3)CCO4)o2)c1	0
Cc1cc(NCC(c2ccccc2)c2ccccc2)nc(NCc2ccc(C(F)(F)F)cc2)n1	0
Cc1cccc(-c2cc(Nc3ccncc3)c3ccccc3n2)n1	0
COc1cccc(-c2cc(-c3c[nH]nc3-c3ccccn3)ccn2)c1	0
Cc1ccc(NC(=O)Nc2cccc(Cl)c2)cc1-c1ccc(C(=O)Nc2ccncc2)cc1	0
NC(=O)c1nnc2ccccc2c1N	7
CC(C)(C)c1ccc(C(=O)Nc2cn3cc(-c4cccnc4)ccc3n2)cc1	2
O=C(O)COc1ncnc2cc(-c3ccc4[nH]ncc4c3)sc12	0
Cl.NC(=O)c1cccc(Nc2nccc(Nc3ccc(Oc4cccc(Cl)c4)c(Cl)c3)n2)c1	0
CS(=O)(=O)c1ccc(-c2nc3n(c2-c2ccncc2)CCC3)cc1	0

Now look at this one.
Given the compound CCn1c(-c2ccccn2)nc2cnccc21 , what is its reported %Inh?
97

----------
Test system: DMPK2
Construct: gene CDC42BPG
CONDITION DETAILS: concentration: 1 μM, replicates: in singlicate; n = 1
Below, each entry is listed with its recorded %Inh.
Write down the numeric answer in % and omit the unit.

Here is how some molecules turned out for %Inh.
MOLECULE	VALUE
O=S(=O)(c1ccc(-c2ccnc3[nH]ccc23)cc1)N1CCCC1	15
Cc1cccc(-c2cc(Nc3ccncc3)c3ccccc3n2)n1	7
Cc1ccc(C(=O)Nc2ccc(Nc3ccnc4cc(-c5ccccn5)ccc34)cc2O)cc1.Cl	0
O=c1cc(N2CCOCC2)nc2n(Cc3cccc(Cl)c3Cl)ccn12	0
O=C(Nc1ccc2c(c1)OCO2)NC1CCN(c2ccnc(Nc3ccc(F)cc3)n2)C1 (stereo not drawn)	9
COc1cc(Nc2nccc(N3CCC(NC(=O)Nc4cc(C)ccc4C)C3)n2)cc(OC)c1OC (stereo not drawn)	22
CC(=O)Nc1nc2cnc(Nc3cc(NC(=O)c4cccc(CCC#N)c4)ccc3C)nc2s1	3
COc1cccc(-c2cc(-c3c[nH]nc3-c3ccccn3)ccn2)c1	6

Given the molecule Cc1c(O)cccc1Nc1ccnc2ccc(C(F)(F)F)cc12.Cl , what is its reported %Inh?
0

Given the molecule CN(C)CCN(C)C(=O)c1cc(-c2ccncc2)c(-c2ccc(Cl)c(O)c2)o1.Cl.Cl , what is its reported %Inh?
47

----------
System: VEGFR2;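 also: kd values determined as follow-up on hits from a single-replicate KINOMEscan panel screen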
Construct: gene KDR
READOUT KIND: pKd
Reminder that pKd is minus the log10 of a molar concentration.

Given the compound Cn1ccc2ncnc(Oc3ccc(NC(=O)Nc4ccccc4)cc3)c21 , what is its reported pKd?
7.35

----------
Test system: EPHA8
CONDITION DETAILS: concentration: 1 μM, replicates: in singlicate; n = 1
Kindly return met if reported %Inh is no lower than 9%; return not met if it is lower.

COMPOUND	LABEL VALUE
Cc1cc(NCC(c2ccccc2)c2ccccc2)nc(NCc2ccc(C(F)(F)F)cc2)n1 [GW497681]	not met
COc1ccc(C2=C(Nc3cccc(C(=O)O)c3)C(=O)NC2=O)cc1 [SB-390765]	met

Hello, I need to know if Clc1cc(Cl)cc(Nc2ccnc(Nc3cc(Cl)cc(Cl)c3)n2)c1 [GSK175726] has measured %Inh not below 9%. Thanks!
met

Hello, I need to know if COc1ccc(CNC(=O)NC2CCN(c3ccnc(Nc4cc(OC)c(OC)c(OC)c4)n3)C2)cc1 (stereo not shown) [GSK1379748] has measured %Inh not below 9%. Thanks!
not met

Hello, I need to know if O=C(Nc1n[nH]c2nc(-c3nccs3)c(Br)cc12)C1CC1 [SB-742251] has measured %Inh not below 9%. Thanks!
met
